# System: Saccharomyces cerevisiae
# experiment: Inhibition of Saccharomyces cerevisiae DNA topoisomerase 2 assessed as decrease in relaxation of supercoiled DNA using supercoiled pBR322 plasmid DNA at 1 to 200 uM gel electrophoresis method
# stated.conditions: dose 1-200 µM
Active and inactive are the calls of the source. The rule behind the calls is not given here.
Your response should consist of one outcome taken from 1.0 for active, 0.0 for inactive

Worked examples follow.
smiles.text: Cc1ccc([N+](=O)[O-])c2c(NCCCNC(=O)[C@@H](N)CCCCN)c3ccccc3nc12
label.class: 1.0
--
smiles.text: NCCCC[C@H](N)C(=O)OCCNc1c2ccccc2nc2cccc([N+](=O)[O-])c12
label.class: 0.0
--
smiles.text: O=[N+]([O-])c1cccc2nc3ccccc3c(NCCO)c12
label.class: 0.0
--
smiles.text: NCCCC[C@H](N)C(=O)NCCCNc1c2ccccc2nc2cccc([N+](=O)[O-])c12
label.class: 1.0
--
smiles.text: Cc1ccc([N+](=O)[O-])c2c(NCCOC(=O)[C@@H](N)CCCCN)c3ccccc3nc12
label.class: 0.0

[Q] Lab log entry: `Cc1ccc([N+](=O)[O-])c2c(NCCO)c3ccccc3nc12` — outcome as called in the assay?
[A] 0.0
